# method notes: Radiobiotin dissociation assay
# Format: binding
# measurement setup: [3H]biotin, various temperatures
readout kind: biotin binding / dissociation rate in radiobiotin dissociation assay

*Q* biotin binding / dissociation rate in radiobiotin dissociation assay lookup needed for ChiAVD(I117Y): Residues 38-58 moved from AVR4/5 to avidin and mutation I117Y in 1-3 subunit interface (SEQ ID NO:16) (protein, listed as Gallus gallus) MVHATSPLLLLLLLSLALVAPGLSARKCSLTGKWTNDLGSNMTIGAVNSRGEFTGTYITAVADNPGNITLSPLLGIQHKRASQPTFGFTVNWKFSESTTVFTGQCFIDRNGKEVLKTMWLLRSSVNDIGDDWKATRVGYNIFTRLRTQKE , thanks.
*A* resembled AVR4/5(C122S)

*Q* And the next one, ChiAVD: Chimeric avidin: residues 38-58 moved from AVR4/5 to avidin (SEQ ID NO:15) (protein, listed as Gallus gallus) MVHATSPLLLLLLLSLALVAPGLSARKCSLTGKWTNDLGSNMTIGAVNSRGEFTGTYITAVADNPGNITLSPLLGIQHKRASQPTFGFTVNWKFSESTTVFTGQCFIDRNGKEVLKTMWLLRSSVNDIGDDWKATRVGINIFTRLRTQKE ?
*A* resembled AVR4/5(C122S)
